# Tgt: PDK1 (Homo sapiens)
# Sequence (O15530 51-556 limits assumed): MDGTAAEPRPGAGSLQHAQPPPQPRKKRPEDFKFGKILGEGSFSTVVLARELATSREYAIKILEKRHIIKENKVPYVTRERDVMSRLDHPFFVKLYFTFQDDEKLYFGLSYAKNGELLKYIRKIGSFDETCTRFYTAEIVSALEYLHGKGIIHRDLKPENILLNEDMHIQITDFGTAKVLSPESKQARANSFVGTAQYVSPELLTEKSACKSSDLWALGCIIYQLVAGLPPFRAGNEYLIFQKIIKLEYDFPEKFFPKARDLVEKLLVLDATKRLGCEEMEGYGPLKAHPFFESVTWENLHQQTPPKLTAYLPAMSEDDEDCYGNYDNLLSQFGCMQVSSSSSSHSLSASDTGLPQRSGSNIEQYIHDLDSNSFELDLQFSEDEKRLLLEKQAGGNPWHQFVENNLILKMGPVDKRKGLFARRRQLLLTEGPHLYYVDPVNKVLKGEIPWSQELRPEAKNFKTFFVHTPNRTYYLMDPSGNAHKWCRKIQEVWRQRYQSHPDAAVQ
pIC50: −log10 of the molar value.
Metric Name: pIC50

A: CC(O)(c1ccccc1)c1cc(-c2c[nH]c3ncc(-c4cnn(C5CCNCC5)c4)cc23)nc(N)n1 (stereo not shown) [A13]
B: CCC(OCOC)(c1cc(-c2c[nH]c3ncc(-c4cnn(C)c4)cc23)nc(N)n1)c1ccncc1F (stereo not shown) [A37]
C: COCOC(C)(c1ccccc1)c1cc(-c2c[nH]c3ncc(-c4cnn(C)c4)cc23)nc(N)n1 (stereo not shown) [A25]
D: CC(O)(c1ccccc1)c1cc(-c2c[nH]c3ncc(-c4cnn(Cc5cccs5)c4)cc23)nc(N)n1 (stereo not shown) [A47]
E: Cn1cc(-c2cnc3[nH]cc(-c4cc(C(C)(O)c5ccccc5F)nc(N)n4)c3c2)cn1 (single isomer, unassigned) [A103]
Which order do the items above take when sorted by pIC50 from high to low? Ranked list of labels, please, in the requested order.
E, B, C, D, A
